The measured values listed here are drawn from patent US20070065439A1.

biological target: T1, IL-1β R11A mutant (human, UniProt P01584 117-269); experiment: binding to site-directed IL-1β mutant; X = abrogation of binding
T1 construct: site-directed mutant
T1 sequence (P01584 117-269 R127A): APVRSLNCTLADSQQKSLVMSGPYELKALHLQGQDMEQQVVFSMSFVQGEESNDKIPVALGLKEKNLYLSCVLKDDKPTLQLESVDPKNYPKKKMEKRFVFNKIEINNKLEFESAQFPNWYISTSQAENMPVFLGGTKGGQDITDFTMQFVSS
MEASUREMENT LABEL: binding result

5.5.1 (antibody, IgG4, V domains shown, lambda; also called mAb 5.5.1; Ab 5.5.1) VH: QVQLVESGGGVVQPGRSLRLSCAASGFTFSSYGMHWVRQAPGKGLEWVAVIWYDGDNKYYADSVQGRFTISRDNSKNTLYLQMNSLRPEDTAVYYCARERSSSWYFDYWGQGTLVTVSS VL: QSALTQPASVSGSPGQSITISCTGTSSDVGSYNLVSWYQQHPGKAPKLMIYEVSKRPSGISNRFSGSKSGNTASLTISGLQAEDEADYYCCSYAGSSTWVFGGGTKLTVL: no binding
9.54.1 (antibody, human IgG4, V domains shown, lambda; also called 9.54.2) VH: QVQLVESGGGVVQPGRSLRLSCAASGFTFSSFGMHWVRQAPGKGLEWVAVIWYDGSNKYYADSVKGRFTISRDNSKNTLYLQMNSLRAEDTAVYYCARDPNYDILTGYYYYGMDVWGQGTTVTVS VL: SSELTQDPAVSVALGQTVRITCQGDILRTYYASWYQQKPGQAPVLVIYGKNDRPSGIPDRFSGSSSGNTASLTITGAQAEDEADYYCDSRDNTVTHLVFGGGTKLTVL: no binding
